Data credit: ChEMBL document CHEMBL1201862

tested on: MOLT-4; experiment: NCI tumour cell line growth inhibition, 48 h
The source made the active and inactive calls. Rule as the data show it: active = GI50 up to about 1.1 µM and inactive = higher.
Choose the fitting class; nothing outside YES = active, NO = inactive is accepted.

Completed entries (count: 2):
{"compound": "C[C@]12CC[C@H](O)CC1=CC[C@@H]1C2CC[C@]2(C)C(=O)N(N)C(=O)CC12 (some centres not stated)", "discreteLabel": "NO"}
{"compound": "CCOC(=O)C(=NN(C)c1ncccc1N)C(=O)OCC", "discreteLabel": "NO"}

Task item: What was the test verdict on "COc1cc2c(cc1OC)C(=O)/C(=C/c1cc(OC)c(OC)c(OC)c1)C2" ?
Reply: NO

Task item: What was the test verdict on "CN1C(=O)c2cccc3c([N+](=O)[O-])ccc(c23)C1=O" ?
Reply: NO

Task item: What was the test verdict on CCN(CC)CCOCC1CCCN2CCCCC12 (configuration not stated) ?
Reply: NO

Task item: What was the test verdict on "COC(=O)/C(C#N)=C(\N)C(Cl)(Cl)Cl" ?
Reply: YES

Task item: What was the test verdict on "CNS(=O)(=O)NN(C)S(=O)(=O)c1ccc(Br)cc1" ?
Reply: NO

Task item: What was the test verdict on "Oc1cnc2c(O)cccc2c1" ?
Reply: NO

Task item: What was the test verdict on SC1=NC2=C(CSC/C2=C\c2cccc(Br)c2)C(c2cccc(Br)c2)N1 (configuration not stated) ?
Reply: NO

Task item: What was the test verdict on "CN(C)CC/C(=N\Nc1c(F)c(F)c(F)c(F)c1F)c1ccccc1" ?
Reply: NO

Task item: What was the test verdict on NC(CCSC(F)F)C(=O)O (configuration not stated) ?
Reply: NO

Task item: What was the test verdict on "O=C(/C=C/c1ccc(O)c(-c2cc(C(=O)/C=C/c3ccc(O)cc3)c(O)cc2O)c1)c1ccc(O)cc1O" ?
Reply: NO

Task item: What was the test verdict on CC(O)C1(CNc2cc(Cl)nc(N)n2)CCC1 (configuration not stated) ?
Reply: NO

Task item: What was the test verdict on "CC(C)(C)/C(O)=C\c1nc2cc(F)c(F)cc2[nH]c1=O" ?
Reply: NO

###

Answer each item with its documented GI50.
tested on: NCI-H23; test: NCI tumour cell line growth inhibition, 48 h
Activity calls are given as the source filed them. No stated cut-off is given here; in the data, active = GI50 up to about 1.1 µM and inactive = higher.

Some molecules with known GI50 results, for comparison:
{"molecule": "Cn1c2ccccc2c(=NNc2ccc(C(=O)O)cc2)c2ccccc21", "targetEntity": "NCI-H23", "GI50": "21.1 µM (inactive)"}
{"molecule": "NC(=S)Nc1nc(=S)[nH]c2[nH]ccc12", "targetEntity": "NCI-H23", "GI50": "> 100 µM (inactive)"}
{"molecule": "O=C(Nc1ccc(F)cc1)c1cc2ccc(O)cc2o/c1=N\\c1cccc(F)c1", "targetEntity": "NCI-H23", "GI50": "19.9 µM (inactive)"}
{"molecule": "C[N+](C)(C)CC(=O)N/N=C(\\C(=O)NC1=C(Cl)C(=O)c2ccccc2C1=O)C(C#N)c1nc(-c2ccc([N+](=O)[O-])cc2)cs1 (stereo not given)", "targetEntity": "NCI-H23", "GI50": "2.51 µM (inactive)"}

Lookup result for Cc1ccc(C)c(NC(=O)/C(=N\N)C(c2cnc3ccc([N+](=O)[O-])cc3n2)[N+](=O)[O-])c1 (stereo not given) ; measured GI50: 70.8 µM (inactive)
